molecular target: purified human αvβ3 (Homo sapiens, UniProt P05106+P06756); construct: purchased Chemicon International, Temecula, Calif., USA; assay: ELISA: competitive inhibition of biotinylated vitronectin binding to immobilized purified integrin αvβ3; settings: Example 2, PEG-linked ligands; averages of at least three determinations; read-out: In vitro EL1SA IC50
pIC50: −log10 of the molar value.
quantity_kind: pIC50

Use these answered entries as a reference point.
compound	pIC50
NCCS(=O)(=O)N[C@@H](CNC(=O)c1ccc(OCCNC2=NCCCN2)cc1)C(=O)O [IA]	7.65
CC(C)(CNC(=O)OCCOCCOCCOCCOCCOCCOCCOCCOC(=O)NCC(C)(C)COC(=O)NCCS(=O)(=O)NC(CNC(=O)c1ccc(OCCNC2=NCCCN2)cc1)C(=O)O)COC(=O)NCCS(=O)(=O)NC(CNC(=O)c1ccc(OCCNC2=NCCCN2)cc1)C(=O)O (centres unmarked) [Compound 8]	9.49
O=C(NCCS(=O)(=O)N[C@@H](CNC(=O)c1ccc(OCCNC2=NCCCN2)cc1)C(=O)O)OCCOCCOCCOC(=O)NCCS(=O)(=O)N[C@@H](CNC(=O)c1ccc(OCCNC2=NCCCN2)cc1)C(=O)O [Compound 3]	9.80
O=C(NCCS(=O)(=O)N[C@@H](CNC(=O)c1ccc(OCCNC2=NCCCN2)cc1)C(=O)O)OCCOCCOCCOCCOC(=O)NCCS(=O)(=O)N[C@@H](CNC(=O)c1ccc(OCCNC2=NCCCN2)cc1)C(=O)O [Compound 4]	9.80
CC(C)(CN)COC(=O)NCCS(=O)(=O)N[C@@H](CNC(=O)c1ccc(OCCNC2=NCCCN2)cc1)C(=O)O [IAC 2]	8.68
CC(C)(CNC(=O)OCCOCCOCCOCCOC(=O)NCC(C)(C)COC(=O)NCCS(=O)(=O)N[C@@H](CNC(=O)c1ccc(OCCNC2=NCCCN2)cc1)C(=O)O)COC(=O)NCCS(=O)(=O)N[C@@H](CNC(=O)c1ccc(OCCNC2=NCCCN2)cc1)C(=O)O [Compound 7]	9.96

[A] O=C(NCCS(=O)(=O)N[C@@H](CNC(=O)c1ccc(OCCNC2=NCCCN2)cc1)C(=O)O)OCCOCCOCCOCCOCCOCCOCCOCCOC(=O)NCCS(=O)(=O)N[C@@H](CNC(=O)c1ccc(OCCNC2=NCCCN2)cc1)C(=O)O [Compound 5]
[B] CC(C)(CNC(=O)OCCOCCOCCOC(=O)NCC(C)(C)COC(=O)NCCS(=O)(=O)N[C@@H](CNC(=O)c1ccc(OCCNC2=NCCCN2)cc1)C(=O)O)COC(=O)NCCS(=O)(=O)N[C@@H](CNC(=O)c1ccc(OCCNC2=NCCCN2)cc1)C(=O)O [Compound 6]
Task item: Looking at A and B , which one comes out lower in pIC50 terms? Answer with the label corresponding to your selection.
Reply: A
(A: 9.80, B: 10.05)
